# TGI values compiled below
- Tested on: PC-3 prostate
- procedure-details: NCI tumour cell line growth inhibition, 48 h
reported-property: TGI

> print(dat)
                                   compound  reported.property  obs.value
1                      Cc1nc(Cl)c(C)c(Cl)n1                TGI   > 100 µM
2  CCC[CH2][Sn]([CH2]CCC)([O]C(=O)c1cccc(F)c1F)[O][Sn]([CH2]CCC)([CH2]CCC)[O]C(=O)c1cccc(F)c1F                TGI    1.86 µM
3  Nc1c(C(=O)Nc2cccc3ccccc23)sc2nc3c(cc12)CCCCC3                TGI    > 50 µM
4  O=C(O)C(Cc1ccccc1)N1C(=O)c2ccccc2C1=O (stereo not given)                TGI   > 100 µM
5  COC(=O)C1=C(C(=O)OC)C(C(=O)c2ccccc2)N2N=C(c3ccc(Cl)cc3)C=CC12 (stereo not given)                TGI   > 100 µM

###

- Tested on: UO-31 renal
- procedure-details: NCI tumour cell line growth inhibition, 48 h
*1 amine or outer side, *2 acyl side, *3 side chain or, on linkers, in order; H or OH if unused. Where a SMILES comes first, the peptide text is derived from it. CO = O=C([*:1])[*:2]
# TGI values compiled below
reported-property: TGI

compound	obs-value
O=C1NC(=O)[C@H]2C3C=CC([C@@H]12)[C@@H]1C(=O)NC(=O)[C@H]31	> 100 µM
COc1cc(-c2ccc(-[n+]3nc(-c4ccc([N+](=O)[O-])cc4)nn3-c3ccc([N+](=O)[O-])cc3)c(OC)c2)ccc1-[n+]1nc(-c2ccc([N+](=O)[O-])cc2)nn1-c1ccc([N+](=O)[O-])cc1	27.8 µM
CCC1=NC(N/N=C/c2ccccc2O)=N/C1=C\c1ccccc1O	20.4 µM
CC(C)C(NC(=O)C(CCCN=C(N)N)NC(=O)NC(Cc1ccccc1)C(=O)O)C(=O)NC(C=O)CCCN=C(N)N (stereo not drawn) ({Phe-CO}-Arg-Val-Arg-aldehyde; configuration not given here)	> 5 µM
O=C1CS(=O)(=O)C(c2cccc(Oc3ccccc3)c2)N1c1cccc(Cl)c1Cl (stereo not drawn)	> 100 µM
O=c1[nH]c2nccn2c(Cl)c1Br	> 100 µM
N#Cc1c(C(N)=O)ncn1Cc1ccccc1	> 100 µM
CN1CCC23c4ccccc4NC1C21CCN(C)C3Nc2ccccc21	> 375 µM

###

- Tested on: HT29 colon
- procedure-details: NCI tumour cell line growth inhibition, 48 h; in the data active = GI50 below about 0.43 µM; inactive = the rest
Outcome codes: YES for active, NO for inactive

molecule	system-name	answer-label
COc1cc2c3c(n(CCCn4ccnc4)c(=O)c2cc1OC)-c1ccccc1C3=O	HT29 colon	YES
COc1cc(/C=C2\C[C@H]3[C@@H]4CC=C5C[C@@H](OC(C)=O)CC[C@]5(C)[C@H]4CC[C@]3(C)[C@H]2OC(C)=O)ccc1OCCCn1ccnc1	HT29 colon	NO
N#C/C(=C\c1ccc(Br)cc1)n1nnc2cc(F)c(F)cc21	HT29 colon	NO
Nc1c(C(=O)Nc2cccc3ccccc23)sc2nc3c(cc12)CCCCC3	HT29 colon	NO
CC(=O)[CH-]C(C)=O.CC(=O)[CH-]C(C)=O.CC(=O)[CH-]C(C)=O.[Cl-].[Hf+4]	HT29 colon	NO
CC(=O)O[C@H]1C(=O)[C@@]2(C)[C@H]([C@H](OC(=O)c3ccccc3)[C@]3(O)C[C@H](OC(=O)[C@H](OC(=O)CCC(=O)OC4CCC(S/N=C(N)/N=C(\N)N(C)C)CC4)[C@@H](NC(=O)c4ccccc4)c4ccccc4)C(C)=C1C3(C)C)[C@]1(OC(C)=O)CO[C@@H]1C[C@@H]2O (stereo partly specified)	HT29 colon	YES
N#C/C(=C\c1ccc(Cl)cc1)n1nnc2cc(F)c(F)cc21	HT29 colon	NO
O=C(Nc1cccc(-c2nc3ccccc3[nH]2)c1)c1cccc(NC(=O)c2ccco2)c1	HT29 colon	NO
CO[C@H]1C[C@@H]2CC[C@@H](C)[C@@](O)(O2)C(=O)C(=O)N2CCCC[C@H]2C(=O)O[C@H]([C@H](C)C[C@@H]2CC[C@@H](OC(=O)C(C)(CO)CO)[C@H](OC)C2)CC(=O)[C@H](C)/C=C(\C)[C@@H](O)[C@@H](OC)C(=O)[C@H](C)C[C@H](C)/C=C/C=C/C=C/1C	HT29 colon	YES
CN(C)c1ccc2[nH]c(O)c(C=Nc3ccc(S(N)(=O)=O)cc3)c2c1	HT29 colon	NO
CCCN1C(=O)/C(=C/c2ccc(O)cc2)SC1=Nc1ccccc1	HT29 colon	NO
C[C@@H](Oc1cc(-c2cnn(C3CC4(CCNCC4)C3)c2)cnc1N)c1c(F)ccc(Cl)c1Cl	HT29 colon	NO
C/C(=C\c1ccn(-c2ccc(N)cc2C(F)(F)F)n1)[C@@H]1C[C@@H]2O[C@]2(C)CCC[C@H](C)[C@H](O)[C@@H](C)C(=O)C(C)(C)[C@@H](O)CC(=O)O1	HT29 colon	YES
COc1cc(N)ccc1Nc1c2ccccc2nc2ccccc12	HT29 colon	NO
O=C(/C=C/C12c3ccccc3C(c3ccccc31)C1C(=O)NC(=O)C12)c1ccco1 (stereo unspecified)	HT29 colon	NO
N#Cc1c(SCc2ccccc2)nc2[nH]c(=S)[nH]c(=S)c2c1-c1ccco1	HT29 colon	NO

###

- Tested on: UACC-62 melanoma
- procedure-details: NCI tumour cell line growth inhibition, 48 h
reported-property: TGI (µM)

> print(dat)
                                    compound  units  relation.qualifier  obs.value
 1             CO/C=C/c1cc2c(cc1C(OC)OC)OCO2     µM                   =       69.1
 2  CC(=O)NNc1nc(C)c(C(/C=C/c2ccccc2O)=N/NC(=O)c2ccncc2)s1     µM                   >        100
 3  CCOC(=O)c1ccc(C(O)CC(=O)OC(C)(C)C)[nH]1 (centres undefined)     µM                   =       81.3
 4  C=C1[C@H](OCC(C)C)[C@@H](OCC(C)C)[C@@H](O)C(C)(C)/C=C/[C@H](C)C(=O)[C@@]2(O)C[C@H](C)[C@H](O)[C@@H]2[C@H]1OCC(C)C     µM                   >        7.5
 5  CC[N+](CC)(CC)Cc1cn(S(=O)(=O)c2ccccc2)c2ccccc12     µM                   >        100
 6       CCCOc1ccc(/C=C/C2=[N+](CCO)CCO2)cc1     µM                   >        100
 7  COc1ccc2c(c1)/C(=C/c1c(-c3ccc(C)cc3)nc3sc(C)cn13)C(=O)N2     µM                   =       32.5
 8           Cn1c(Cc2ccccc2)nc2cc3ccccc3cc21     µM                   =       43.5
 9  N#Cc1c(SCc2ccccc2)nc2[nH]c(=S)[nH]c(=S)c2c1-c1ccco1     µM                   =       46.6
10  COc1ccc(/C(Cl)=C(\C=O)c2cc(OC)c(OC)c(OC)c2)cc1OC     µM                   >        100
11           COCC1OCCN1C (centres undefined)     µM                   >        100
12  Cc1c(C(=O)Nc2ccc(Cl)c(C(F)(F)F)c2)oc2cc(O)ccc2/c1=N\NC(N)=S     µM                   >        100
13  O=c1[nH]cnc2c1nnn2[C@@H]1O[C@H](CO)[C@@H](O)[C@H]1O     µM                   =       84.4
14  CCOP(=O)(CCC(O)CNc1nc(N)nc(Cl)c1N=Nc1ccc(Cl)cc1)OCC (centres undefined)     µM                   =       30.2

###

- Test system: SR leukemia
- procedure-details: NCI tumour cell line growth inhibition, 48 h

molecule	TGI
CC(C)CC(NC(=O)OCc1ccccc1)C(=O)NCCCCC(N)C(=O)NC(CCCCNC(=O)C(CC(C)C)NC(=O)OCc1ccccc1)C(=O)NC(CCCCNC(=O)C(CC(C)C)NC(=O)OCc1ccccc1)C(=O)NC(CCCCNC(=O)C(CC(C)C)NC(=O)OCc1ccccc1)C(=O)NC(CCCCNC(=O)C(CC(C)C)NC(=O)OCc1ccccc1)C(=O)NC(CCCCNC(=O)C(CC(C)C)NC(=O)OCc1ccccc1)C(=O)O (stereo not drawn)	> 100 µM
O=c1c2c([nH]c3nccn13)CCCC2	> 10 µM
CC(=O)O[C@H]1C(=O)[C@@]2(C)[C@H]([C@H](OC(=O)c3ccccc3)[C@]3(O)C[C@H](OC(=O)[C@H](OC(=O)CCC(=O)OC4CCC(S/N=C(N)/N=C(\N)N(C)C)CC4)[C@@H](NC(=O)c4ccccc4)c4ccccc4)C(C)=C1C3(C)C)[C@]1(OC(C)=O)CO[C@@H]1C[C@@H]2O (stereo partly drawn)	> 50 µM
O=C(Nc1cccc(-c2nc3ccccc3[nH]2)c1)c1cccc(NC(=O)c2ccco2)c1	6.53 µM
COc1ccc(/C=c2/[nH]c(=O)/c(=C\c3ccc(OCc4ccccc4)cn3)[nH]c2=O)cc1	> 100 µM
O=C(Nc1nc(-c2ccc(Cl)cc2)cs1)c1ccc(O)c(O)c1	9.26 µM
Cn1c(Cc2ccccc2)nc2cc3ccccc3cc21	48.1 µM
Cc1c(N(C(=O)c2cc(-c3cc(Cl)ccc3C(=O)N3Cc4ccccc4C[C@H]3CN3CCOCC3)n(C)c2C)c2ccc(O)cc2)cc(C#N)n1C	> 100 µM
